# System: KARPAS-45
# experiment.summary: selective drug sensitivity score (sDSS, relative to normal bone marrow) (sDSS (score)); higher = more potent and effective on the cell line relative to normal bone marrow cells;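 note: ALL cell lines in 384-well plates, five doses spanning 10,000-fold, each plate scaled between vehicle and 100 µmol/L benzalkonium chloride controls, sDSS an adapted area-under-curve metric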
# run.parameters: 72 h
Decision: selective drug sensitivity score compared against 2; not below it gives 1.0, below it gives 0.0.

Here's what some known entries look like.
compound: Cc1ccc(Nc2nccc(N(C)c3ccc4c(C)n(C)nc4c3)n2)cc1S(N)(=O)=O [Pazopanib] (top concentration 10000 nM)
group: 0.0

compound: C[C@]12C=CC(=O)C=C1CC[C@@H]1[C@@H]2[C@@H](O)C[C@@]2(C)[C@H]1CC[C@]2(O)C(=O)CO [Prednisolone] (top concentration 10000 nM)
group: 1.0

compound: NCCNc1ccc(NCCN)c2c1C(=O)c1ccncc1C2=O [Pixantrone] (top concentration 10000 nM)
group: 0.0

compound: CC(=O)N(O)CCCCCNC(=O)CCC(=O)N(O)CCCCCNC(=O)CCC(=O)N(O)CCCCCN [Deferoxamine] (top concentration 10000 nM)
group: 1.0

compound: Nc1nc2[nH]cnc2c(=S)[nH]1 [Thioguanine] (top concentration 10000 nM)
group: 1.0

I'd appreciate it if you could say whether Cc1sc2c(c1C)C(c1ccc(Cl)cc1)=N[C@@H](CC(=O)Nc1ccc(OCCOCCOCCOCCNc3cccc4c3C(=O)N(C3CCC(=O)NC3=O)C4=O)cc1)c1nnc(C)n1-2 (some centres undefined) [ARV-825] (top concentration 300 nM) has selective drug sensitivity score at least equal to 2.
0.0

Does the reported selective drug sensitivity score for C1=N/C2=N/c3ccc(OCCN4CCCC4)c(c3)COC/C=C/COCc3cccc(c3)C(=C1)N2 [Pacritinib] (top concentration 10000 nM) fall at or above the 2 mark?
0.0

Threshold query (selective drug sensitivity score >= 2) on CN1CCN(c2ccc3nc(-c4c(N)c5c(F)cccc5[nH]c4=O)[nH]c3c2)CC1 [Dovitinib] (top concentration 10000 nM)
0.0

Is reported selective drug sensitivity score greater than or equal to 2 here: COc1ncc(-c2ccc3nccc(-c4ccnnc4)c3c2)cc1NS(=O)(=O)c1ccc(F)cc1F [Omipalisib] (top concentration 1000 nM)
1.0

Kindly determine if selective drug sensitivity score recorded for CCN(CC)CCOc1ccc(/C(=C(/Cl)c2ccccc2)c2ccccc2)cc1 [Clomifene] (top concentration 10000 nM) is above or exactly 2.
0.0

###

# Tested on: COG-LL-317
# experiment.summary: selective drug sensitivity score (sDSS, relative to normal bone marrow) (sDSS (score)); higher = more potent and effective on the cell line relative to normal bone marrow cells
# run.parameters: 72 h
Binary call on selective drug sensitivity score: true (1) from 1 upward, false (0) beneath that.

These solved cases illustrate the format of a correct answer.
compound: CO[C@@H](C)Cn1c(=O)n(C)c2cnc3ccc(-c4cncc(C(C)(C)O)c4)cc3c21 (top concentration 2500 nM)
group: false (0)

compound: C=CC(=O)Nc1cc2c(Nc3ccc(F)c(Cl)c3)ncnc2cc1OCCCN1CCOCC1 [Canertinib] (top concentration 10000 nM)
group: true (1)

compound: COC(=O)c1ccc2c(c1)[nH]c1ncnc(NCCCN3CCCCC3)c12 [UM729] (top concentration 10000 nM)
group: false (0)

Evaluate CC(C)N(C[C@H]1O[C@@H](n2cnc3c(N)ncnc32)[C@H](O)[C@@H]1O)[C@H]1C[C@@H](CCc2nc3cc(C(C)(C)C)ccc3[nH]2)C1 [Pinometostat] (top concentration 1000 nM) : selective drug sensitivity score at minimum 1?
false (0)

hey, is selective drug sensitivity score for this one >= 1? NC(=O)c1cccc2cn(-c3ccc(C4CCCNC4)cc3)nc12 (centres undefined) [Niraparib] (top concentration 10000 nM)
true (1)

Decide: is the reported value of selective drug sensitivity score for Nc1nc(NC2CC2)cc(-c2cccc(Cl)c2Cl)n1 [TH588] (top concentration 25000 nM) equal to or greater than 1?
true (1)

Hi, just wondering whether O=c1[nH]c(=O)n([C@H]2C[C@H](O)[C@@H](CO)O2)cc1F [Floxuridine] (top concentration 10000 nM) shows selective drug sensitivity score of 1 or higher.
true (1)

Item Nc1nc(Cl)nc2c1ncn2[C@H]1C[C@H](O)[C@@H](CO)O1 [Cladribine] (top concentration 1000 nM) with selective drug sensitivity score of 1 or above?
true (1)

Dear colleague, could you confirm whether O=C1Cc2cc(C(=O)NC3C[C@H]4CC[C@@H](C3)N4S(=O)(=O)CC3CCN(CCCC(F)(F)F)CC3)c(Cl)cc2N1 (some centres undefined) (top concentration 10000 nM) has selective drug sensitivity score at or above 1?
false (0)

For this compound, is measured selective drug sensitivity score 1 or higher? Cc1[nH]c2ccccc2c1CCNCc1ccc(/C=C/C(=O)NO)cc1 [Panobinostat] (top concentration 1000 nM)
true (1)

For this compound, is measured selective drug sensitivity score 1 or higher? CCOc1ccccc1-n1c(C(C)N2CCN(C(=O)COc3ccc(Cl)cc3)CC2)nc2ccccc2c1=O (centres undefined) [Erastin] (top concentration 10000 nM)
true (1)

# bool: selective drug sensitivity score of OC[C@H]1O[C@@H](n2cnc3c2N=CNC[C@H]3O)C[C@@H]1O [Pentostatin] (top concentration 10000 nM) >= 1
false (0)

Determine whether measured selective drug sensitivity score meets or exceeds 1 for O=C(c1ccc(F)c(F)c1Nc1ccc(I)cc1F)N1CC(O)([C@@H]2CCCCN2)C1 [Cobimetinib] (top concentration 1000 nM)
false (0)

Check this compound for selective drug sensitivity score at or above 1: NCCNc1ccc(NCCN)c2c1C(=O)c1ccncc1C2=O [Pixantrone] (top concentration 10000 nM)
false (0)

###

# Test system: KOPN-8
# experiment.summary: selective drug sensitivity score (sDSS, relative to normal bone marrow) (sDSS (score)); higher = more potent and effective on the cell line relative to normal bone marrow cells
# run.parameters: 72 h
Cut-off 3 on selective drug sensitivity score, inclusive. At or above means 1; below means -1.

Worked cases, answers included:
molecule: CC/C(=C(\c1ccc(O)cc1)c1ccc(OCCN(C)C)cc1)c1ccccc1 [4-hydroxytamoxifen] (top concentration 10000 nM)
tgt: KOPN-8
group: 1

molecule: N#Cc1ccc(C(c2ccc(C#N)cc2)n2cncn2)cc1 [Letrozole] (top concentration 10000 nM)
tgt: KOPN-8
group: -1

molecule: CC[C@H](NC(=O)[C@H](C)NC)C(=O)N1C[C@@H](O)C[C@H]1Cc1c(-c2[nH]c3cc(F)ccc3c2C[C@@H]2C[C@H](O)CN2C(=O)[C@H](CC)NC(=O)[C@H](C)NC)[nH]c2cc(F)ccc12 [Birinapant] (top concentration 1000 nM)
tgt: KOPN-8
group: -1

Has CCN(CC)CCCC(C)Nc1c2ccc(Cl)cc2nc2ccc(OC)cc12 (centres undefined) [Mepacrine] (top concentration 50000 nM) a recorded selective drug sensitivity score greater than or equal to 3?
-1

Dear colleague, could you confirm whether CC[C@@](C)(Nc1ccnc(-c2c[nH]c3ncccc23)n1)C(=O)NCC(F)(F)F [Decernotinib] (top concentration 10000 nM) has selective drug sensitivity score at or above 3?
-1

Quick check: does O=C(O)c1ccc(-c2c[nH]c3ncc(-c4ccccc4)cc23)cc1C1CCCC1 (top concentration 10000 nM) have selective drug sensitivity score greater than or equal to 3?
1

Could you verify whether the entry Nc1cc(F)ccc1NC(=O)/C=C/c1cnn(C/C=C/c2ccccc2)c1 [RGFP966] (top concentration 10000 nM) shows selective drug sensitivity score of no less than 3?
1

Check if selective drug sensitivity score >= 3 (inclusive). Item: COCC1(CO)C(=O)C2CCN1CC2 (centres undefined) [APR-246] (top concentration 10000 nM)
-1

Does the reported selective drug sensitivity score for Nc1nccc(-c2c(-c3ccc(F)cc3)ncn2C2CCCCC2)n1 (top concentration 10000 nM) fall at or above the 3 mark?
1

Hello, I need to know if COc1cc(OC)cc(N(CCNC(C)C)c2ccc3ncc(-c4cnn(C)c4)nc3c2)c1 [Erdafitinib] (top concentration 1000 nM) has measured selective drug sensitivity score not below 3. Thanks!
-1

###

selective drug sensitivity score values by entry
# Tested on: NALM-16
# experiment.summary: selective drug sensitivity score (sDSS, relative to normal bone marrow) (sDSS (score)); higher = more potent and effective on the cell line relative to normal bone marrow cells
# run.parameters: 72 h

Below are worked cases with known answers.
compound: Cc1sc2c(c1C)C(c1ccc(Cl)cc1)=N[C@@H](CC(=O)OC(C)(C)C)c1nnc(C)n1-2 [JQ1] (top concentration 10000 nM)
selective drug sensitivity score: 2.02
--
compound: CN(C)CCCOc1ccc(-c2ccc3ncc4c(c3c2)n(C2CCOCC2)c(=O)n4C)cn1 [AZD0156] (top concentration 1000 nM)
selective drug sensitivity score: -0.06
--
compound: C[C@]12C=CC(=O)C=C1CC[C@@H]1[C@@H]2[C@@H](O)C[C@@]2(C)[C@H]1CC[C@]2(O)C(=O)CO [Prednisolone] (top concentration 10000 nM)
selective drug sensitivity score: -3
--
compound: CC(C)C[C@@H](C(=O)N[C@H](C(=O)OC1CCCC1)c1ccccc1)[C@H](O)C(=O)NO [Tosedostat] (top concentration 10000 nM)
selective drug sensitivity score: 3.06

Notebook: CCOc1ccccc1-n1c(C(C)N2CCN(C(=O)COc3ccc(Cl)cc3)CC2)nc2ccccc2c1=O (stereo not given) [Erastin] (top concentration 10000 nM) , selective drug sensitivity score read as 9.34

Cited source for all entries: the supplement of paper PMC8967900
